target: rat nNOS (Rattus norvegicus (Rat), UniProt P29476); conditions: read-out: potency for nNOS
endpoint.label: pKi
Remember, pKi is on a log scale: it is -log10 of the molar concentration.

What pKi value was documented for this compound, Cc1cn(-c2nccc(CCNCCCc3cccc(F)c3)n2)cn1 [Compound 31] ?
6.18

* * *

For each of the compounds below, state its log10(Ki).
target: rat nNOS (Rattus norvegicus (Rat)); settings: read-out: Ki nNOS; rat nNOS; Ki from IC50 by Cheng-Prusoff
Field: value | Transform: log10 | Quantity: Ki | Unit: µM

Reported log10(Ki) for Fc1cccc(CCCNCCc2ccnc(-n3ccnn3)n2)c1 : what is it?
1.78

Give its log10(Ki) value. Item: Fc1cccc(C2CC2CNCCc2ccnc(-n3ccnc3)n2)c1 (centres unmarked)
-1.25

Form field: reported log10(Ki) of Fc1cccc(CCCNCc2ccnc(-n3ccnc3)n2)c1
0.43

Name the recorded log10(Ki) for Fc1cccc(CCNCCNc2ccnc(-n3ccnc3)n2)c1 .
-0.43

Endpoint output: log10(Ki) of Fc1cccc(CC2CC2NCCc2ccnc(-n3ccnc3)n2)c1 (centres unmarked) . Value?
-1.40

# get_value(readout='log10(Ki)', item= Clc1cccc(CCCNCCc2ccnc(-n3ccnc3)n2)c1 )
-1.49

// log10(Ki) lookup, key: Fc1cccc(CCNCc2ccnc(-n3ccnc3)n2)c1
0.94

// lookup log10(Ki) for c1cncc(CCCNCCc2ccnc(-n3ccnc3)n2)c1
-1.27
